src = the NIST ThermoML archive (doi:10.1016/j.fluid.2014.11.020)

assay: activity coefficient (dimensionless); of the first substance listed, at infinite dilution; xn = mol fraction of the nth substance listed; details: 333.15 K; Liquid; Chromatography; x1 = 0
Where activity coefficient equals or exceeds 1, the correct label is Satisfied; where it does not, the label is Not satisfied.

Example cases with answers are listed next.
{"columns": ["compound", "qualitative.label"],
 "data": [
  ["c1ccsc1 [thiophene] + CCCOC[n+]1ccn(C)c1.N#C[N-]C#N", "Satisfied"],
  ["Cc1ccc(C)cc1 [1,4-dimethylbenzene] + CCCOC[n+]1ccn(C)c1.N#C[N-]C#N", "Satisfied"],
  ["c1ccccc1 [benzene] + CN(C)c1cc[n+](COCCCOC[n+]2ccc(N(C)C)cc2)cc1.O=S(=O)([N-]S(=O)(=O)C(F)(F)F)C(F)(F)F.O=S(=O)([N-]S(=O)(=O)C(F)(F)F)C(F)(F)F", "Not satisfied"]
]}

Ask | Form field: activity coefficient at least 1? Entry: CCCCCCCCCCC [undecane] + CCCOC[n+]1ccn(Cc2ccccc2)c1.O=S(=O)([N-]S(=O)(=O)C(F)(F)F)C(F)(F)F
Reply | Satisfied

Ask | Form field: activity coefficient at least 1? Entry: ClC(Cl)Cl [trichloromethane] + CCCCCCCCn1cc[n+](COCCC)c1C.N#C[N-]C#N
Reply | Not satisfied

Ask | Form field: activity coefficient at least 1? Entry: Cc1ccc(C)cc1 [1,4-dimethylbenzene] + CN(C)c1cc[n+](COCCCOC[n+]2ccc(N(C)C)cc2)cc1.O=S(=O)([N-]S(=O)(=O)C(F)(F)F)C(F)(F)F.O=S(=O)([N-]S(=O)(=O)C(F)(F)F)C(F)(F)F
Reply | Satisfied

Ask | Form field: activity coefficient at least 1? Entry: C1CCCCCC1 [cycloheptane] + CCCOC[n+]1ccn(C)c1.F[B-](F)(F)F
Reply | Satisfied

Ask | Form field: activity coefficient at least 1? Entry: CCCC(C)=O [pentan-2-one] + CCCOC[n+]1ccn(C)c1.F[B-](F)(F)F
Reply | Satisfied

Ask | Form field: activity coefficient at least 1? Entry: c1ccsc1 [thiophene] + CCCOC[n+]1ccn(Cc2ccccc2)c1.O=S(=O)([N-]S(=O)(=O)C(F)(F)F)C(F)(F)F
Reply | Not satisfied
